Target: T1, mouse IL-12Rβ2 expressed on cells (mouse, UniProt P97378 24-874)
T1 construct: HEK293T cells, stably transduced (cDNA NM_008354); also called mIL-12RB2
T1 sequence: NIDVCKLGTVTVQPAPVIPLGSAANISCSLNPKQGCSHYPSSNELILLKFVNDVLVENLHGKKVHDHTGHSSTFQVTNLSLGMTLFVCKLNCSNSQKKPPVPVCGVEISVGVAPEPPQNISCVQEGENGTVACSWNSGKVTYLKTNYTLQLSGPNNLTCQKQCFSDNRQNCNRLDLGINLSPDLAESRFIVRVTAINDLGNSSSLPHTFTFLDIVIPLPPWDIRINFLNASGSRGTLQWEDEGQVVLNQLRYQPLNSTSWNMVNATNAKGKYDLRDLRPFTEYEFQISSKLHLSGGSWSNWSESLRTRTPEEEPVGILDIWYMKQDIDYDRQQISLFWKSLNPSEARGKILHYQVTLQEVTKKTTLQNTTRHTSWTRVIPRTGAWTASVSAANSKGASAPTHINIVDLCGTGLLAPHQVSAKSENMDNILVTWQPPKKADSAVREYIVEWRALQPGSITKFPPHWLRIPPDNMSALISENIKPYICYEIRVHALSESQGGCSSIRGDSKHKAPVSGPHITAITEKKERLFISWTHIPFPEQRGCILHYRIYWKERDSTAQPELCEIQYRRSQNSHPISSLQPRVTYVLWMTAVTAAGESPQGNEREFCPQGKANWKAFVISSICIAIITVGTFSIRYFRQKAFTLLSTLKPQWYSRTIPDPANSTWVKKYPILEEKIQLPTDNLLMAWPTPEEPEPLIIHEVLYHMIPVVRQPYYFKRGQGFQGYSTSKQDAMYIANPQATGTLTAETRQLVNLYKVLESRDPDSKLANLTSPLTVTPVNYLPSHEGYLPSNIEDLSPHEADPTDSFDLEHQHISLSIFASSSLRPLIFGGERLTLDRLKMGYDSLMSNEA
Assay: flow cytometry, P.E. VHH on HEK293T cells stably expressing mIL-12RB2
Let's look at some binders and their measured % cells bound.
assay.endpoint: % cells bound

[[record]]
binder = "anti-IL-12Rβ2 VHH clone 3CRHM12 (VHH, not shown: small tags and cut ends, tested as periplasmic extract) VHH: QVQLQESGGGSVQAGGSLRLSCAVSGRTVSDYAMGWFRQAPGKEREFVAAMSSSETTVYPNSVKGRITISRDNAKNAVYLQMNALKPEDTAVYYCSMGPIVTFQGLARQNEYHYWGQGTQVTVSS"
readout_value = "2.2%"

[[record]]
binder = "anti-IL-12Rβ2 VHH clone 2CAM88 (VHH, not shown: small tags and cut ends, tested as periplasmic extract) VHH: QVQLQESGGGLVPPGDSLRLSCAASGRTFSSYTMGWFRQAPGKEREFVARISQDGGSTYYADSMKGRFTVARDNAKNTVYLQMNSLKPEDTAVYYCAADMIKWGLRVGVDSFKYWGQGTQVTVSS"
readout_value = "14.8%"

[[record]]
binder = "anti-IL-12Rβ2 VHH clone 2CRM83 (VHH, not shown: small tags and cut ends, tested as periplasmic extract; also called 20451) VHH: QVQLQESGGGLVQPGGSLRLSCAASGFTFSAYAMSWVRQAPGKGLEWVSSISSTGTNPNYADSVKGRFTISRDNAKNTLYLQMNSLKPEDTAVYYCAEAYRNYSPPGQGTQVTVSS"
readout_value = "24.9%"

[[record]]
binder = "anti-IL-12Rβ2 VHH clone 3CAHM40 (VHH, not shown: small tags and cut ends, tested as periplasmic extract) VHH: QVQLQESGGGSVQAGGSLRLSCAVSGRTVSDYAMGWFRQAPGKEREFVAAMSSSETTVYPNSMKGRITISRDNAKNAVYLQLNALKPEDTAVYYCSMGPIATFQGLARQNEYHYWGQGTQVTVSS"
readout_value = "1.97%"

